- testSummary: Solubility of the compound in E3 medium with DMSO incubated for 24 hrs by DAD-HPLC based shake flask method
- Format: physicochemical
resultType: solubility at 24 h (µg/mL)
Numbers only here, please. The scale is µg/mL.

So for O=S(=O)(N[C@@H](CO)Cc1c[nH]c2ccccc12)c1ccc(-c2ccnc3[nH]ccc23)cc1 , the logged solubility at 24 h turned out to be 13.9

###

- targetOrSystem: Serine/threonine-protein kinase Nek1 (Homo sapiens)
- Sequence (Q96PY6 whole entry, the tested form may be a part): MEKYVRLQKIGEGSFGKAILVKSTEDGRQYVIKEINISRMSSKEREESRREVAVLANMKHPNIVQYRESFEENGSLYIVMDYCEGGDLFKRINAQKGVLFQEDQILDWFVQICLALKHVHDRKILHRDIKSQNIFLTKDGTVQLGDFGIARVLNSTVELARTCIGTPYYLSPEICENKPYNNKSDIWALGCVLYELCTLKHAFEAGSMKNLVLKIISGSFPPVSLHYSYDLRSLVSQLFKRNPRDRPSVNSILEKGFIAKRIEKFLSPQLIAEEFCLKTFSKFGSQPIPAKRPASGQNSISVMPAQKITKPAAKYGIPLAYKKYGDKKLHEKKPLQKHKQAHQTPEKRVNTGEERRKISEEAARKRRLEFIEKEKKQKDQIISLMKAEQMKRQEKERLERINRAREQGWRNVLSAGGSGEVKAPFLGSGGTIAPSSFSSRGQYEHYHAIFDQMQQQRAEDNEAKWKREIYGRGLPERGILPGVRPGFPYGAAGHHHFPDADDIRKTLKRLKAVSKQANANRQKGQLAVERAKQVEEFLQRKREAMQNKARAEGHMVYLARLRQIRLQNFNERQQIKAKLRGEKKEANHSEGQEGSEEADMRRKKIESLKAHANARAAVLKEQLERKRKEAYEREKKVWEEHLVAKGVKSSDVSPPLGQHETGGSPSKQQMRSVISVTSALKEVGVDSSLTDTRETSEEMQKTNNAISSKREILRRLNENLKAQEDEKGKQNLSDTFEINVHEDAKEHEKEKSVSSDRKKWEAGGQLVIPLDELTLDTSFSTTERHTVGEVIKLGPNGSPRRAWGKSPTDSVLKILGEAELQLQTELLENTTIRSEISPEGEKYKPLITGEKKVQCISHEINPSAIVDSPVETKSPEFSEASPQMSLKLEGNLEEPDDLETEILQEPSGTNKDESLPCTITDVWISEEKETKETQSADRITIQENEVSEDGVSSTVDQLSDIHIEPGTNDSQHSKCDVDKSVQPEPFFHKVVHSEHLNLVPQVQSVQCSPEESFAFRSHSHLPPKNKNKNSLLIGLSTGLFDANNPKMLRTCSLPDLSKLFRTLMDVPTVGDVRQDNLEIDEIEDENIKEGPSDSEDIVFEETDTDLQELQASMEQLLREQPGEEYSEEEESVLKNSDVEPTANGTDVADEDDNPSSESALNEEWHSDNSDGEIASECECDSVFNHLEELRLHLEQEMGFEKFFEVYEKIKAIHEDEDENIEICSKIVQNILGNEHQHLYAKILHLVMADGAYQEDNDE
- testSummary: Inhibition of human recombinant NEK1 (1 to 505 residues) using RLGRDKYKTLRQIRQ as substrate incubated for 40 mins in presence of [gamma-33P]-ATP by radiometric scintillation counting assay
resultType: IC50 (µM)
Numbers only here, please. The scale is µM.

>>> print(df.to_string())
                                inputsmiles                            targetorsystem  resulttype  measurement
0  O=S(=O)(NCCO)c1ccc(-c2ccnc3[nH]ccc23)cc1  Serine/threonine-protein kinase Nek1 (Homo sapiens)        IC50            2
1  CN(C)CCNS(=O)(=O)c1ccc(-c2ccnc3[nH]ccc23)cc1  Serine/threonine-protein kinase Nek1 (Homo sapiens)        IC50          4.3

Now look at this entry.
So for O=S(=O)(N[C@@H](CO)Cc1c[nH]c2ccccc12)c1ccc(-c2ccnc3[nH]ccc23)cc1 , the logged IC50 turned out to be 0.33
